Ref: patent US5466671A

test system: Acinetobacter calcoaceticus; assay: Inhibition zone assay (agar plate); format: cell-based; conditions: agar plate, 50 nanomoles/well, 3 mm wells
Residues, ends and D or L forms follow the SMILES beside them.
ATTRIBUTE_MEASURED: inhibition zone diameter (number of plus signs)

COMPOUND: CC[C@H](C)[C@H](NC(=O)[C@@H]1CCCN1C(=O)[C@H](C)NC(=O)[C@@H]1CCCN1C(=O)[C@H](CCCNC(=N)N)NC(=O)[C@@H]1CCCN1C(=O)[C@H](CCCCN)NC(=O)[C@@H](N)CC(N)=O)C(=O)N[C@@H](CCCCN)C(=O)N1CCC[C@H]1C(=O)N[C@@H](CCCNC(=N)N)C(=O)N1CCC[C@H]1C(=O)N1CCC[C@H]1C(=O)N[C@@H](Cc1c[nH]cn1)C(=O)N1CCC[C@H]1C(=O)N[C@@H](CCCNC(=N)N)C(=O)N[C@@H](CC(C)C)C(=O)O [Cd 2-] (H-NKPRPAPIKPRPPHPRL-OH)
ASSAY_VALUE: + ((+) 5-6 mm)
//
COMPOUND: CC[C@H](C)[C@H](NC(=O)[C@@H]1CCCN1C(=O)[C@H](C)NC(=O)[C@@H]1CCCN1C(=O)[C@H](CCCNC(=N)N)NC(=O)[C@@H]1CCCN1C(=O)[C@H](CCCCN)NC(=O)[C@@H](N)CO)C(=O)N[C@@H](CCCCN)C(=O)N1CCC[C@H]1C(=O)N[C@@H](CCCNC(=N)N)C(=O)N1CCC[C@H]1C(=O)N1CCC[C@H]1C(=O)N[C@@H](Cc1c[nH]cn1)C(=O)N1CCC[C@H]1C(=O)N[C@@H](CCCNC(=N)N)C(=O)N[C@@H](CC(C)C)C(=O)O [Cd 3-] (H-SKPRPAPIKPRPPHPRL-OH)
ASSAY_VALUE: + ((+) 5-6 mm)
